- measurementNotes: gradient 5% acetonitrile 3 min, to 50% in 2 min, to 85% in 15 min, held 3 min, 100 µL/min
- conditionParameters: column: Zorbax Extend-C18 2.1 x 50 mm; eluents: water / acetonitrile, 0.1% formic acid
measure: RP-LC retention time (s)
Give bare numbers, in s.

Some compounds with recorded RP-LC retention time:
{"columns": ["compound", "quantitativeReadout"],
 "data": [
  ["COc1ccc(NC(=O)Cn2nc(C(=O)N3CCCCC3)c3ccccc32)cc1OC", 756],
  ["Cc1ccn2c(NC(=O)c3cccc([N+](=O)[O-])c3)c(-c3ccc(F)cc3)nc2c1", 863],
  ["CN1C(=O)NC(c2ccccc2C(F)(F)F)C2=C1CN(CCC(=O)N1CCCC1)C2=O (stereo not given)", 598]
]}

// for each compound in input: emit RP-LC retention time
1. CC(C)n1cnc2ccc(-c3noc(-c4ccc(F)cc4)n3)cc21
2. Cc1nn(Cc2ccc(C(=O)N3CCN(c4ccccn4)CC3)cc2)c(C)c1S(=O)(=O)N(C)C

Response given:
1. 742
2. 606
